- TARGET: human mAChR M4 (Homo sapiens, UniProt P08173)
- Construct: expressed in transfected cells
- ASSAY_PROTOCOL: mAChR M4 cell-based functional assay (calcium mobilization, CHO-K1 hM4-Gqi5 cells)
- TEST_CONTEXT: positive allosteric modulator activity, increase in the EC20 acetylcholine response, CHO-K1 hM4-Gqi5 cells; read-out: Human M4 EC50
Each entry below carries its recorded log10 of EC50.
VALUE_KIND: log10 of EC50 (log10 of the value in nM)

[
  {
    "SAMPLE_SMILES": "Cc1cc(C#N)cnc1N1CCc2ncc(Oc3ccc(F)cc3F)cc2C1",
    "VALUE_KIND": "log10 of EC50",
    "QUANTITATIVE_RESULT": 2.78
  },
  {
    "SAMPLE_SMILES": "Cc1cc(C(=O)NCc2nccs2)cnc1N1CCc2ncc(-c3c(C)noc3C)cc2C1",
    "VALUE_KIND": "log10 of EC50",
    "QUANTITATIVE_RESULT": 1.89
  },
  {
    "SAMPLE_SMILES": "Cc1ncc(-c2cnc3c(c2)CN(c2nnc(C#N)c(C)c2C)CC3)s1",
    "VALUE_KIND": "log10 of EC50",
    "QUANTITATIVE_RESULT": 2.55
  },
  {
    "SAMPLE_SMILES": "Cc1cc(C(=O)NCc2ccc3ncnn3c2)cnc1N1CCc2ncccc2C1",
    "VALUE_KIND": "log10 of EC50",
    "QUANTITATIVE_RESULT": 3.51
  },
  {
    "SAMPLE_SMILES": "Cc1cc(C#N)nnc1N1CCc2ncc(C3CCC3)cc2C1",
    "VALUE_KIND": "log10 of EC50",
    "QUANTITATIVE_RESULT": 2.18
  }
]

====

- TARGET: human mAChR M4 (Homo sapiens, UniProt P08173)
- Construct: expressed in transfected cells
- Sequence (P08173 1-479): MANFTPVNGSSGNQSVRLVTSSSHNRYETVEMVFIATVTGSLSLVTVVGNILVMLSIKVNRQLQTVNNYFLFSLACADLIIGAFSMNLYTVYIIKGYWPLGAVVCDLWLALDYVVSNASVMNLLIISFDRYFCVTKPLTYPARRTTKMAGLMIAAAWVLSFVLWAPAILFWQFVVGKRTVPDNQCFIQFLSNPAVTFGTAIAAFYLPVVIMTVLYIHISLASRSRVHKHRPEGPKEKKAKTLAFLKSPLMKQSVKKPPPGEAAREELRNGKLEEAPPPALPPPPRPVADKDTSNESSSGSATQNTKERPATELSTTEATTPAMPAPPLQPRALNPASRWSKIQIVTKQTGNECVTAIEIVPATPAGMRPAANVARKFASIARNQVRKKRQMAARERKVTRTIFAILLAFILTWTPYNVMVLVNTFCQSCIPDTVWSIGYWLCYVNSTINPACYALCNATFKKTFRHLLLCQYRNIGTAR
- ASSAY_PROTOCOL: mAChR M4 cell-based functional assay (calcium mobilization, CHO-K1 hM4-Gqi5 cells)
- TEST_CONTEXT: CHO-K1, % ACh maximum at 30 μM; human M4
Listing: Emax at 30 µM of selected molecules

[
  {
    "MOLECULE": "Cc1cc(C#N)cnc1N1CCc2ncc(-c3c(C)nn(C)c3C)cc2C1 [compound 107]",
    "TARGET": "human mAChR M4 (Homo sapiens, UniProt P08173)",
    "Emax at 30 µM / %": 98
  },
  {
    "MOLECULE": "Cc1cc(-c2cnc3c(c2)CN(c2nnc(C(=O)NCc4ccncc4)c(C)c2C)CC3)ccn1 [compound 189]",
    "TARGET": "human mAChR M4 (Homo sapiens, UniProt P08173)",
    "Emax at 30 µM / %": 93
  },
  {
    "MOLECULE": "Cc1nc(Cl)c(C)c(N2CCc3ncc(Nc4ccc(F)cc4F)cc3C2)n1 [compound 87]",
    "TARGET": "human mAChR M4 (Homo sapiens, UniProt P08173)",
    "Emax at 30 µM / %": 82
  },
  {
    "MOLECULE": "COC1(C)CN(C(=O)c2cc(C)c(N3CCc4ncc(N5CCCn6nccc65)cc4C3)nn2)C1 [Example 552]",
    "TARGET": "human mAChR M4 (Homo sapiens, UniProt P08173)",
    "Emax at 30 µM / %": 76
  }
]

====

- TARGET: human mAChR M4 (Homo sapiens)
- Construct: expressed in transfected cells
- Sequence (P08173 1-479): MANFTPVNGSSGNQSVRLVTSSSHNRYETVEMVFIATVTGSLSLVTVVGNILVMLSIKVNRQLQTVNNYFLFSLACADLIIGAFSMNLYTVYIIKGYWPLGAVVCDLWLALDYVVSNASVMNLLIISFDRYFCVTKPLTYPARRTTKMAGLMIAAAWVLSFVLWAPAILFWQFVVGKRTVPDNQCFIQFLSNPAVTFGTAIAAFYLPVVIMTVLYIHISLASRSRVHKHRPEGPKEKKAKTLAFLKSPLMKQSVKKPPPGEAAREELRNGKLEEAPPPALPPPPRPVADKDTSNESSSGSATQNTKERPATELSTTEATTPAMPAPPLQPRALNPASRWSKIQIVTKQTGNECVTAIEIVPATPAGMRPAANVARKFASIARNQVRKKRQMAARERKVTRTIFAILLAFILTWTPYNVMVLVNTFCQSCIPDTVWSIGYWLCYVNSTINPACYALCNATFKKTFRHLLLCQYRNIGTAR
- ASSAY_PROTOCOL: mAChR M4 cell-based functional assay (calcium mobilization, CHO-K1 hM4-Gqi5 cells)
- TEST_CONTEXT: positive allosteric modulator activity, increase in the EC20 acetylcholine response, CHO-K1 hM4-Gqi5 cells; read-out: Human M4 EC50
Label satisfied when EC50 is strictly below 900 nM; at or above that, label not satisfied.

[
  {
    "MOLECULE": "[2H]C([2H])([2H])c1cnc2c(c1)CN(c1nnc(C#N)cc1C)CC2",
    "CLASS_LABEL": "satisfied"
  },
  {
    "MOLECULE": "Cc1cnccc1CNC(=O)c1cnc(N2CCc3ncc(Nc4ccnn4C)cc3C2)c(C)c1",
    "CLASS_LABEL": "satisfied"
  },
  {
    "MOLECULE": "Cc1cc(C(=O)N2CC(C)(O)C2)nnc1N1CCc2ncc(-n3cccn3)cc2C1",
    "CLASS_LABEL": "satisfied"
  },
  {
    "MOLECULE": "Cc1nn(C)c(C)c1-c1cnc2c(c1)CN(c1nnc(C#N)c(C)c1C)CC2",
    "CLASS_LABEL": "satisfied"
  },
  {
    "MOLECULE": "Cc1cc(C#N)nnc1N1CCc2ncc(Nc3ccncc3F)cc2C1",
    "CLASS_LABEL": "satisfied"
  },
  {
    "MOLECULE": "Cc1cc(C#N)nnc1N1CCc2ncc(C(C)(O)C(F)(F)F)cc2C1 (centres unmarked)",
    "CLASS_LABEL": "not satisfied"
  },
  {
    "MOLECULE": "Cc1cc(C(=O)NCc2cccnc2)cnc1N1CCc2ncccc2C1",
    "CLASS_LABEL": "not satisfied"
  },
  {
    "MOLECULE": "Cc1cc(C#N)cnc1N1CCc2ncc(-c3ccnc(F)c3)cc2C1",
    "CLASS_LABEL": "not satisfied"
  },
  {
    "MOLECULE": "Cc1c(C(=O)NCc2ccncc2)nnc(N2CCc3ncccc3C2)c1C",
    "CLASS_LABEL": "not satisfied"
  },
  {
    "MOLECULE": "Cn1nccc1Nc1cnc2c(c1)CN(c1nc(Cl)nc3c1COC3)CC2",
    "CLASS_LABEL": "not satisfied"
  },
  {
    "MOLECULE": "[2H]C1([2H])N(c2cnc3c(c2)CN(c2nnc(C#N)cc2C)CC3)c2ccnn2C([2H])([2H])C1([2H])[2H]",
    "CLASS_LABEL": "satisfied"
  },
  {
    "MOLECULE": "Cc1nc(Cl)c(C)c(N2CCc3ncc(Oc4ccc5c(cnn5C)c4)cc3C2)n1",
    "CLASS_LABEL": "satisfied"
  },
  {
    "MOLECULE": "Cc1c(C#N)nnc(N2CCc3ncc(Nc4c(F)cccc4Cl)cc3C2)c1C",
    "CLASS_LABEL": "satisfied"
  },
  {
    "MOLECULE": "Cc1cc(C#N)cnc1N1CCc2ncc(N3CCO[C@@H](c4ccccc4)C3)cc2C1",
    "CLASS_LABEL": "not satisfied"
  },
  {
    "MOLECULE": "Cc1c(C#N)nnc(N2CCc3ncc(-c4ccc(N5CC6CC5CO6)nc4)cc3C2)c1C (centres unmarked)",
    "CLASS_LABEL": "satisfied"
  },
  {
    "MOLECULE": "Cc1nc(Cl)c(C)c(N2CCc3ncc(Oc4ccc5c(c4)OCCO5)cc3C2)n1",
    "CLASS_LABEL": "satisfied"
  },
  {
    "MOLECULE": "Cc1c(Cl)nc(C(F)(F)F)nc1N1CCc2ncc(C3CC3)cc2C1",
    "CLASS_LABEL": "not satisfied"
  },
  {
    "MOLECULE": "Cc1c(C#N)nnc(N2CCc3ncc(-c4cnn(CCN(C)C)c4)cc3C2)c1C",
    "CLASS_LABEL": "not satisfied"
  }
]
